# Tested on: HCT-15 colon
# test_method_notes: NCI-60 one-dose screen, 48 h
# condition_notes: 10 µM unless noted
About 83,000 compounds went through this panel and 20% of them were active in at least one assay; those are over-represented in the sample as a whole. Calls of active or inactive are those of the source. The calls were made as follows: active = growth percent below 10; inactive = the rest.
Your response should consist of one outcome taken from T (active), F (inactive)

[2H]C([2H])([2H])Oc1c(F)cccc1/C=C/C(=O)/C=C(O)/C=C/c1cccc(F)c1OC([2H])([2H])[2H] | F
CCOC(=O)c1cnc2sc(-c3ccc(OC)cc3)nc2c1Cl | F
CN1CCN(CCCNC(=O)c2c3c(n4ccccc24)C(=O)c2ncccc2C3=O)CC1 | T
COc1cc2cc(Oc3ccc(NC(=O)Nc4ccc(F)c(C(F)(F)F)c4)cc3)c(C)nc2cc1OCCN1CCCCC1 | T
Nc1cc(-c2ccc(Cl)cc2)nn1-c1nc(-c2ccc(Br)cc2)cs1 | F
CN1C(=O)N(C)C2C1NN=c1s/c(=C\c3ccc(F)cc3)c(=O)n12 (stereo unspecified) | F

Exercise: Any idea what this test logged for C=CCNc1nc(O)c(/C=C2\C=Nc3ncccc32)s1 ?
Solution: F

Exercise: Any idea what this test logged for CN1CC(c2ccccc2)C(C(=O)c2ccc(Br)cc2)C12C(=O)Nc1ccccc12 (stereo unspecified) ?
Solution: F

Exercise: Any idea what this test logged for O=C(/C=C/C12c3ccccc3C(c3ccccc31)C1C(=O)NC(=O)C12)c1cccs1 (stereo unspecified) ?
Solution: F

Exercise: Any idea what this test logged for C=C(c1ccc(OC)c(/C=C/C(=O)c2cc(OC)c(OC)c(OC)c2)c1)c1cc(OC)c(OC)c(OC)c1 ?
Solution: T

Exercise: Any idea what this test logged for CC1=C2[C@@H](CC1)[C@]1(C)O[C@@](C(C)C)(C[C@H]1OC(=O)CO)[C@H]2OC(=O)CCCc1ccccc1 ?
Solution: F

Exercise: Any idea what this test logged for CN(C)c1ccc(Cc2cc(-c3ccccc3)nn(C/C(=N/O)c3ccccc3)c2=O)cc1 ?
Solution: F

Exercise: Any idea what this test logged for C#C[C@]1(O)CC[C@H]2[C@@H]3CC=C4c5sc(-c6ccccc6)nc5CC[C@]4(C)[C@H]3CC[C@@]21C ?
Solution: F

Exercise: Any idea what this test logged for CCN1CCN(c2cc(C(=O)Nc3cccc(Nc4ccc5c(OC)cccc5n4)c3)cc(C(F)(F)F)c2)CC1 ?
Solution: T

Exercise: Any idea what this test logged for CS(=O)(=O)Nc1cc(-c2ccc3ncnc(Nc4cccc(Cl)c4)c3c2)cnc1Cl ?
Solution: T

Exercise: Any idea what this test logged for C/C(=C(\c1ccc(OCCCN(C)C)cc1)c1ccc(OC(=O)Cc2ccccc2)cc1)c1ccc(Cl)cc1 ?
Solution: F

Exercise: Any idea what this test logged for COC(=O)c1cc(-c2cc(OC)c(OC)c(OC)c2)[nH]c1N/N=C/c1c(Cl)cccc1Cl ?
Solution: F

Exercise: Any idea what this test logged for COc1cccc(C(=O)Nc2cccc(NC(=O)c3ccccn3)c2)c1 ?
Solution: F

Exercise: Any idea what this test logged for Cc1ccc(OCCOCCOCCOCCOc2ccc(C)n(O)c2=S)c(=S)n1O ?
Solution: F

Exercise: Any idea what this test logged for COc1cccc(-c2nn(-c3ccccc3)cc2-c2ccnc(-c3cccnc3)c2)c1 ?
Solution: F

Exercise: Any idea what this test logged for C#CCOC(=O)C(N)CSSCC(N)C(=O)O (stereo unspecified) ?
Solution: F

---

# Test system: UACC-62 melanoma
# test_method_notes: NCI-60 one-dose screen, 48 h (100 = growth as untreated, 0 = no growth, -100 = all killed)
# condition_notes: 10 µM unless noted
Compounds without any hit were thinned out: in the full panel of roughly 83,000, 20% have a hit.
readout_name: growth (%)
Your answer is read as %, so omit the unit and give the number.

CCCc1cc(CCC)n2nc(N)nc2n1 | 111
Cc1[nH]c(C2CC(c3ccc(C(F)(F)F)c(F)c3)=NN2C)c(C)c1C(=O)NCC(F)(F)F (centres undefined) | 82.3
O=C(Cn1cc(CSc2nc3ccccc3o2)nn1)Nc1ccc([N+](=O)[O-])cc1 | 68.5

Kindly consider the entry below.
Exercise: Can you share its growth? I mean this compound: COC(=O)[C@H](C)NC(=O)[C@@H]1CCCN1C(=O)CNC(=O)[C@H](C)N
Solution: 88.8

---

# Tested on: LOX IMVI melanoma
# test_method_notes: NCI-60 one-dose screen, 48 h (100 = growth as untreated, 0 = no growth, -100 = all killed)
# condition_notes: 10 µM unless noted
This is part of a sample that, as a whole, favours compounds with a hit. Of some 83,000 tested, about 20% had one in any assay.
# growth per record follows
Your answer is read as %, so omit the unit and give the number.

COC(=O)c1c(C)nc(C)c2c1C(=O)C(Br)=C(NCCN1CCOCC1)C2=O | 82.8
C/C(=C(\c1ccc(OCCCN(C)C)cc1)c1ccc(OC(=O)Cc2ccccc2)cc1)c1ccc(Cl)cc1 | 3.29

Exercise: Can you share its growth? I mean this compound: COc1cc2cc(Oc3ccc(NC(=O)Nc4ccc(Cl)c(Cl)c4)cc3)c(C)nc2cc1OCCN1CCCCC1
Solution: 99.1

---

# growth per record follows
# System: RPMI-8226 leukemia
# test_method_notes: NCI-60 one-dose screen, 48 h (100 = growth as untreated, 0 = no growth, -100 = all killed)
# condition_notes: 10 µM unless noted
The panel holds about 83,000 compounds, 20% with a hit somewhere; the sample as a whole holds those more often.
Your answer is read as %, so omit the unit and give the number.

Illustrative cases are given below, each with its answer.
O=C(O)/C=C\C(=O)Nc1ccc2c(c1)Cc1cc(F)ccc1-2 | 97.6
Cc1cc(C)n(C(=O)CSc2nc3sc4c(c3c(=O)n2-c2ccccc2)CCCCC4)n1 | 103
O=C(N/N=C/c1ccccc1Cl)c1ccccc1Nc1ccnc(C(F)(F)F)c1 | -34.9
CN(C)C(=S)NN=C(c1ccccn1)c1ccccn1 | 17.8
COc1cccc(-c2cc(-c3ccc(Nc4nc(Nc5ccc(Cl)cc5)nc(Nc5ccc(Cl)cc5)n4)cc3)nc(N)c2C#N)c1 | -55.8

Kindly consider the entry below.
Exercise: Can you share its growth? I mean this molecule: O=C(Cn1cc(CSc2nc3ccccc3o2)nn1)Nc1ccc([N+](=O)[O-])cc1
Solution: 97.3

---

# Test system: SK-MEL-28 melanoma
# test_method_notes: NCI-60 one-dose screen, 48 h (100 = growth as untreated, 0 = no growth, -100 = all killed)
# condition_notes: 10 µM unless noted
The panel holds about 83,000 compounds, 20% with a hit somewhere; the sample as a whole holds those more often.
readout_name: growth (%)
Your answer is read as %, so omit the unit and give the number.

COC(=O)CNC(=O)c1ccc(NC(=O)c2[nH]c(C)c(Cl)c2Cl)c(O[C@H]2CCNC2)c1 | 115

Exercise: Can you share its growth? I mean this compound: O=C(COc1ccc(/C=C2\Oc3ccccc3C2=O)cc1)Nc1nccs1
Solution: 129

Exercise: Can you share its growth? I mean this compound: CC(C)(C)CC(C)(C)Nc1c(-c2c(O)c3ccccc3oc2=O)nc2sccn12
Solution: 102

Exercise: Can you share its growth? I mean this compound: Cc1ccc(NC(=O)c2ccc(Nc3ncnc4c3cnn4-c3cccc(F)c3)cc2)cc1
Solution: 106

---

# System: RXF 393 renal
# test_method_notes: NCI-60 one-dose screen, 48 h
# condition_notes: 10 µM unless noted
# Protocol: Cells are grown in 96 well plates and exposed to the test compound for 48 hours. Compounds are tested at a single concentration, which is 10^-5 M for most compounds. The reported endpoint is percent growth (GI% or GIPRCNT), where numbers from 0 - 100% represent growth inhibition, and numbers from -100% - 0 represent cell death. For example, a value of 40 represents 60% growth inhibition. A value of 0 means no net growth occurred over the course of the experiment. […]
About 83,000 compounds went through this panel and 20% of them were active in at least one assay; those are over-represented in the sample as a whole. The source made the active and inactive calls. How the source made its calls: active means growth percent below 10; inactive means the rest.
Your response should consist of one outcome taken from 1.0 = active, 0.0 = inactive

For orientation, consider the following solved cases.
O=C(CNc1ncco1)Nc1ccc(S(=O)(=O)c2ccc(NC(=O)CNc3ncco3)cc2)cc1 | 1.0
CCN1C(=O)N(CC)C2C1NN=c1s/c(=C\c3ccccc3)c(=O)n12 (configuration not stated) | 0.0
C=C(C[n+]1ccccc1)[C@@H]1CC[C@]2(C(=O)OC)CC[C@]3(C)[C@H](CC[C@@H]4[C@@]5(C)CCC(=O)C(C)(C)[C@@H]5CC[C@]43C)[C@@H]12 | 0.0
CC(=O)OCCOc1cc(Cl)c(Cl)cc1Cl | 0.0
N#C/C(=C/C=C/c1ccccc1)S(=O)c1ccccc1 (configuration not stated) | 1.0
Nc1ncnc2c1N=C(c1ccc([N+](=O)[O-])cc1)CC(c1ccc3c(c1)OCO3)N2 (configuration not stated) | 0.0

We next turn to a different compound, shown below.
Exercise: Any idea what this test logged for COc1ccc(Nc2nc(Nc3cc(C)[nH]n3)c3cc(OC)c(OC)cc3n2)cc1 ?
Solution: 1.0

Source listed as PubChem BioAssay (NCI).
